Test system: K-562 leukemia
Experiment: NCI-60 one-dose screen, 48 h (100 = growth as untreated, 0 = no growth, -100 = all killed)
Conditions: 10 µM unless noted
About 83,000 compounds went through this panel and 20% of them were active in at least one assay; those are over-represented in the sample as a whole.
endpoint: growth (%)
Give the number; % is assumed, so skip it.

C=C(C)[C@@H]1CC[C@]2(C(=O)OCCCC[P+](c3ccccc3)(c3ccccc3)c3ccccc3)CC[C@]3(C)[C@H](CC[C@@H]4[C@@]5(C)CC[C@H](OC(=O)C(Cl)Cl)C(C)(C)[C@@H]5CC[C@]43C)[C@@H]12
-35.9
CC(=O)ON1CCCC(P(=O)(OCOC(=O)C(C)(C)C)OCOC(=O)C(C)(C)C)C1=O (configuration not stated)
3.72
CN(CCC#N)C(=O)Nc1ccccc1
96.2
C=C(C)[C@@H]1CC[C@]2(C(=O)OCCOCCOCC[P+](c3ccccc3)(c3ccccc3)c3ccccc3)CC[C@]3(C)[C@H](CC[C@@H]4[C@@]5(C)CC[C@H](C)C(C)(C)[C@@H]5CC[C@]43C)[C@@H]12
-65.7
COCCOCCOCc1n(Cc2ccc3ccccc3c2)c2ccccc2[n+]1Cc1ccc2ccccc2c1
11
COc1ccc2nc(-c3ccc(Cl)cc3)cc(-c3nnc(SCC(=O)Nc4ccc(/C(C)=N\O)cc4)o3)c2c1
15.9
CC(=O)c1ccc(NC(=O)CSc2nnc(-c3cc(-c4ccc(C)cc4)nc4ccccc34)o2)cc1
38.1
O=C1[C@@H](OS(=O)(=O)CC(F)(F)F)[C@H](c2ccc(F)cn2)N1c1cc2c3ccccc3ccc2c2ccccc12
44.5
O=C(CN1N=C(c2ccc(F)cc2)CCC1=O)Nc1nc2ccccc2s1
30.1
C=CCn1c(CN2CCN(c3cc4c(cc3F)c(=O)c(C(=O)O)cn4C3CC3)CC2)n[nH]c1=S
89.6

Prompt: # growth lookup, item COc1ccc(C(=O)c2cc(OC)c(OC)c(OC)c2)cc1OC(=O)C(Cl)(Cl)Cl
Completion: 7.85

Prompt: # growth lookup, item COc1cc(C2=N/C(=C\c3cc4ccccc4nc3Oc3ccccc3)C(=O)N2C(=N)N)cc(OC)c1OC
Completion: 82.3

Prompt: # growth lookup, item Cn1nc(C(F)(F)F)c(-c2cc(C(F)(F)F)cc(C(F)(F)F)c2)c1-c1ccc(OCc2ccc(Cl)cc2)cc1O
Completion: 1.63

Prompt: # growth lookup, item CC(=O)Nc1nc2c(c(N)c1C#N)C(c1cccc(Cl)c1)C1=C(CCCC1=O)N2c1sc2c(c1C#N)CCCC2 (configuration not stated)
Completion: 29.8

Prompt: # growth lookup, item CCOC(=O)c1c(C)nc2c(c1N)/C(=C/c1cccs1)C(=O)N2c1ccc(OC)cc1
Completion: 59.1

Prompt: # growth lookup, item O=C(Nc1nccs1)c1noc2ccccc12
Completion: 87.7

Prompt: # growth lookup, item COc1ccc(C(=O)c2cc(OC)c(C)c(OC)c2)cc1OC(=O)CCl
Completion: 9.2

====

System: MDA-MB-231 breast
Test: NCI-60 one-dose screen, 48 h
Settings: 10 µM unless noted
The panel holds about 83,000 compounds, 20% with a hit somewhere; the sample as a whole holds those more often. Active and inactive are the calls of the source. The calls were made as follows: active = growth percent below 10; inactive = the rest.
Please state which outcome applies, choosing from active, inactive

CCc1c(C(=O)N[C@@H](C(=O)OCc2ccccc2)C(C)O)[nH]c2ccc(Cl)cc12 (stereo not given in full)
inactive
Nc1ccc2c(c1)C(=O)C(=O)c1c-2nc2ccccn12
active
CCSc1nc(Cl)c(C#N)c(-c2ccc(F)cc2)n1
inactive
COc1ccc(OCC(=O)OC(C)C)cc1
inactive
Cc1cc(Cl)cc(CN(Cc2ccccc2)Cc2c(O)ccc3ccccc23)c1O
inactive

Now for another entry.
Prompt: Look up the recorded call for Cc1cccc(C)c1NC(=O)CN(CC(C)C)CC(O)COc1ccccc1 (stereo not given) in this test.
Completion: inactive

Data origin: PubChem BioAssay (NCI)
